- System: Escherichia coli K-12
- Assay: Activity of purified recombinant Escherichia coli K-12 malic enzyme L310K/L404S mutant at 0.2 mM by Lineweaver-Burk plot method in presence of L-malate MnCl2
Property: kcat (s⁻¹)
# unit: s⁻¹ | format: bare number

NC(=O)c1ccc[n+]([C@@H]2O[C@H](COP(=O)([O-])OP(=O)(O)OC[C@@H]3O[C@H](n4cc(-c5cccc6ccccc56)nn4)[C@@H](O)[C@H]3O)[C@@H](O)[C@H]2O)c1 ... 68.6
NC(=O)c1ccc[n+]([C@@H]2O[C@H](COP(=O)([O-])OP(=O)(O)OC[C@@H]3O[C@H](n4cnc5c(N)ncnc54)[C@@H](O)[C@H]3O)[C@@H](O)[C@H]2O)c1 ... 33.7
NC(=O)c1ccc[n+]([C@@H]2O[C@H](COP(=O)([O-])OP(=O)(O)OC[C@@H]3O[C@H](n4cc(-c5ccccc5)nn4)[C@@H](O)[C@H]3O)[C@@H](O)[C@H]2O)c1 ... 16.4

Moving on to another molecule below.
Input line: For the molecule Cc1ccccc1-c1cn([C@H]2O[C@@H](COP(=O)(O)OP(=O)([O-])OC[C@H]3O[C@@H]([n+]4cccc(C(N)=O)c4)[C@H](O)[C@@H]3O)[C@H](O)[C@@H]2O)nn1 , what kcat is on record?
Output line: 86.7

* * *

- Tested on: Escherichia coli K-12
- Assay: Activity of purified recombinant Escherichia coli K-12 malic enzyme L310K/L404S mutant at 0.2 mM by Lineweaver-Burk plot method in presence of L-malate MnCl2
Property: Km
# output: numeric value plus its unit

A selection of reference data follows.
Cc1ccccc1-c1cn([C@H]2O[C@@H](COP(=O)(O)OP(=O)([O-])OC[C@H]3O[C@@H]([n+]4cccc(C(N)=O)c4)[C@H](O)[C@@H]3O)[C@H](O)[C@@H]2O)nn1 ... 1100 µM
NC(=O)c1ccc[n+]([C@@H]2O[C@H](COP(=O)([O-])OP(=O)(O)OC[C@@H]3O[C@H](n4cnc5c(N)ncnc54)[C@@H](O)[C@H]3O)[C@@H](O)[C@H]2O)c1 ... 4100 µM
NC(=O)c1ccc[n+]([C@@H]2O[C@H](COP(=O)([O-])OP(=O)(O)OC[C@@H]3O[C@H](n4cc(-c5ccccc5)nn4)[C@@H](O)[C@H]3O)[C@@H](O)[C@H]2O)c1 ... 2500 µM

Moving on to another compound below.
Input line: Escherichia coli K-12 / Km / NC(=O)c1ccc[n+]([C@@H]2O[C@H](COP(=O)([O-])OP(=O)(O)OC[C@@H]3O[C@H](n4cc(-c5cccc6ccccc56)nn4)[C@@H](O)[C@H]3O)[C@@H](O)[C@H]2O)c1 : value?
Output line: 1000 µM

* * *

Listed next: entries and their corresponding kcat/Km.
- Tested on: Escherichia coli K-12
- Assay: Ratio of Kcat to Km for purified recombinant Escherichia coli K-12 malic enzyme L310K/L404S mutant at 0.2 mM by Lineweaver-Burk plot method in presence of L-malate MnCl2
# unit: M⁻¹ s⁻¹ | format: bare number

A selection of reference data follows.
Cc1ccccc1-c1cn([C@H]2O[C@@H](COP(=O)(O)OP(=O)([O-])OC[C@H]3O[C@@H]([n+]4cccc(C(N)=O)c4)[C@H](O)[C@@H]3O)[C@H](O)[C@@H]2O)nn1 ... 78800
NC(=O)c1ccc[n+]([C@@H]2O[C@H](COP(=O)([O-])OP(=O)(O)OC[C@@H]3O[C@H](n4cc(-c5cccc6ccccc56)nn4)[C@@H](O)[C@H]3O)[C@@H](O)[C@H]2O)c1 ... 68600
NC(=O)c1ccc[n+]([C@@H]2O[C@H](COP(=O)([O-])OP(=O)(O)OC[C@@H]3O[C@H](n4cnc5c(N)ncnc54)[C@@H](O)[C@H]3O)[C@@H](O)[C@H]2O)c1 ... 8200

Input line: For the compound NC(=O)c1ccc[n+]([C@@H]2O[C@H](COP(=O)([O-])OP(=O)(O)OC[C@@H]3O[C@H](n4cc(-c5ccccc5)nn4)[C@@H](O)[C@H]3O)[C@@H](O)[C@H]2O)c1 , what kcat/Km is on record?
Output line: 6700
